For each entry below, report its EC value.
target: Sphingosine 1-phosphate receptor 5 (Homo sapiens) (UniProt Q9H228); test: Agonist activity at recombinant S1P5 (unknown origin) expressed in CHO cell membranes assessed as increase in [35S]GTPgammaS binding preincubated for 30 mins followed by [35S]GTPgammaS addition and measured after 40 mins by microbeta scintillation counter analysis; assay type: functional; settings: Membrane, filed as agonist, time 70.0 min
Sequence (Q9H228 whole entry): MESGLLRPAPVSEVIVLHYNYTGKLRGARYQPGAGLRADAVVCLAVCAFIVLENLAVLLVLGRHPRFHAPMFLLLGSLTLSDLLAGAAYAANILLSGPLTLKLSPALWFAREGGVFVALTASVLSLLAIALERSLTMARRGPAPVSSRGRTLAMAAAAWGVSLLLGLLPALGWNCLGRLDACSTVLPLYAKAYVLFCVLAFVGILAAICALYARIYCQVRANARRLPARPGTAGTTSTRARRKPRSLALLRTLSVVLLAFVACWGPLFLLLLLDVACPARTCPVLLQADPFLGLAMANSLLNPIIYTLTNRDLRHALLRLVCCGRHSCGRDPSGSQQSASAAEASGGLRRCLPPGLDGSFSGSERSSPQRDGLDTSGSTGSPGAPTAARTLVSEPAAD
Numbers only, in nM.

Field: example entries. Status: answers known.
CC(C)Oc1ccc(COc2ccc3c(c2)CCC3N2CC(C(=O)O)C2)cc1C(F)(F)F (stereo unspecified) : 1
O=C(O)C1CN(C2CCc3cc(OCc4cc(F)c(F)cc4F)ccc32)C1 (stereo unspecified) : 1

Consider the record given below.
Q. Looking for the measured EC of O=C(O)C1CN(C2CCc3cc(OCc4ccc(C5CC5)c(C(F)(F)F)c4)ccc32)C1 (stereo unspecified) , can you help?
A. 1

====

target: Sphingosine 1-phosphate receptor 5 (Homo sapiens) (UniProt Q9H228); assay: Agonist activity at recombinant S1P5 (unknown origin) expressed in CHO cell membranes assessed as increase in [35S]GTPgammaS binding preincubated for 30 mins followed by [35S]GTPgammaS addition and measured after 40 mins by microbeta scintillation counter analysis; format: functional; conditions: Membrane, filed as agonist, time 70.0 min
Attribute measured: EC

Field: example entries. Status: answers known.
O=C(O)C1CCN(C2CCc3c2ccc(OCc2c(Cl)cccc2Cl)c3F)CC1 (stereo not drawn) : < 1 nM
Cc1c(OCc2c(Cl)cccc2Cl)ccc2c1CCC2N1CCC(C(=O)O)CC1 (stereo not drawn) : < 1 nM

Q. Looking for the measured EC of Cc1cc(OCc2c(Cl)cccc2Cl)cc2c1C(N1CCC(C(=O)O)CC1)CC2 (stereo not drawn) , can you help?
A. < 1 nM
